Numbers sourced from patent US10604512B2.

system: primary human mesenchymal stem cells (hMSCs); test: Induction of chondrogenesis in primary human mesenchymal stem cells (nodule imaging, Rhodamine B / Nile Red); format: cell-based; conditions: concentration required to induce 50% levels of chondrogenesis vs TGF-β3 positive control, read-out: Conc (nM) of 50% TGF-β3 activity
PROPERTY LABEL: EC50 (nM)

compound_smiles=c1ccc2[nH]c(-c3n[nH]c4ccc(-c5cncc(CN6CCCC6)c5)cc34)cc2c1 val=100
compound_smiles=Nc1cncc(-c2ccc3[nH]nc(-c4cc5c(-c6ccccc6F)cccc5[nH]4)c3c2)c1 val=10
compound_smiles=CC(C)C(=O)Nc1cncc(-c2ccc3[nH]nc(-c4cc5c(-c6cccnc6)cccc5[nH]4)c3c2)c1 val=30
compound_smiles=c1cncc(-c2cccc3[nH]c(-c4n[nH]c5ccc(-c6cncc(CN7CCCCC7)c6)cc45)cc23)c1 val=10
compound_smiles=c1cncc(-c2cccc3[nH]c(-c4n[nH]c5ccc(-c6cncnc6)cc45)cc23)c1 val=10
compound_smiles=Cc1ccncc1-c1ccc2[nH]nc(-c3cc4c(-c5ccncc5)cccc4[nH]3)c2c1 val=10
compound_smiles=CC(C)C(=O)Nc1cncc(-c2ccc3[nH]nc(-c4cc5c(N6CCN(C)CC6)cccc5[nH]4)c3c2)c1 val=100
compound_smiles=O=C(Nc1cncc(-c2ccc3[nH]nc(-c4cc5c(-c6ccncc6)cccc5[nH]4)c3c2)c1)C1CC1 val=10
compound_smiles=CCC(=O)Nc1cncc(-c2ccc3[nH]nc(-c4cc5c(-c6cccnc6)cccc5[nH]4)c3c2)c1 val=10
compound_smiles=CN1CCN(c2cccc3[nH]c(-c4n[nH]c5ccc(-c6cncc(NC(=O)C7CCCC7)c6)cc45)cc23)CC1 val=100
compound_smiles=Fc1ccc(-c2cccc3[nH]c(-c4n[nH]c5ccc(-c6cncc(CN7CCCC7)c6)cc45)cc23)cc1 val=30
compound_smiles=c1ccc(-c2cccc3[nH]c(-c4n[nH]c5ccc(-c6cncc(CN7CCCC7)c6)cc45)cc23)nc1 val=10
compound_smiles=CN(C)Cc1cncc(-c2ccc3[nH]nc(-c4cc5c(-c6ccncc6)cccc5[nH]4)c3c2)c1 val=30
compound_smiles=Nc1cncc(-c2ccc3[nH]nc(-c4cc5c(-c6ccoc6)cccc5[nH]4)c3c2)c1 val=10
compound_smiles=CN1CCN(c2cccc3[nH]c(-c4n[nH]c5ccc(-c6cncc(CN7CCCCC7)c6)cc45)cc23)CC1 val=100

* * *

system: SW480 colon cancer cells; experiment: Cell viability assay (CellTiter-Blue) in SW480 colon cancer cells; type: cell-based; settings: Homo sapiens, 96 h, four days, CellTiter-Blue
pEC50: −log10 of the molar value.
A collection of compounds and their measured pEC50
PROPERTY LABEL: pEC50

compound_smiles=CC(C)(C)CC(=O)Nc1cncc(-c2ccc3[nH]nc(-c4cc5c(-c6ccsc6)cccc5[nH]4)c3c2)c1 property_label=pEC50 relation_qualifier== val=6.01
compound_smiles=c1cncc(-c2cccc3[nH]c(-c4n[nH]c5ccc(-c6cncc(CN7CCCCC7)c6)cc45)cc23)c1 property_label=pEC50 relation_qualifier=< val=5.00
compound_smiles=Cc1ccncc1-c1ccc2[nH]nc(-c3cc4c(-c5cccc(F)c5)cccc4[nH]3)c2c1 property_label=pEC50 relation_qualifier== val=6.25
compound_smiles=c1cncc(-c2ccc3[nH]nc(-c4cc5c(-c6cccnc6)cccc5[nH]4)c3c2)c1 property_label=pEC50 relation_qualifier=< val=5.00
compound_smiles=c1cc(-c2ccoc2)c2cc(-c3n[nH]c4ccc(-c5cncc(CN6CCCCC6)c5)cc34)[nH]c2c1 property_label=pEC50 relation_qualifier== val=6.35
compound_smiles=c1cnc2cc(-c3n[nH]c4ccc(-c5cncc(CN6CCCCC6)c5)cc34)[nH]c2c1 property_label=pEC50 relation_qualifier== val=6.97
compound_smiles=FC1(F)CCN(Cc2cncc(-c3ccc4[nH]nc(-c5cc6c(-c7cccs7)cccc6[nH]5)c4c3)c2)C1 property_label=pEC50 relation_qualifier== val=5.51
compound_smiles=Nc1cncc(-c2ccc3[nH]nc(-c4cc5c(-c6ccsc6)cccc5[nH]4)c3c2)c1 property_label=pEC50 relation_qualifier== val=6.95
compound_smiles=CN1CCN(c2cccc3[nH]c(-c4n[nH]c5ccc(-c6cncc(NC(=O)C7CCCC7)c6)cc45)cc23)CC1 property_label=pEC50 relation_qualifier== val=5.52
compound_smiles=O=C(Nc1cncc(-c2ccc3[nH]nc(-c4cc5c(-c6cccs6)cccc5[nH]4)c3c2)c1)C1CCCC1 property_label=pEC50 relation_qualifier== val=5.96
compound_smiles=CN(C)Cc1cncc(-c2ccc3[nH]nc(-c4cc5c(-c6cc(F)cc(CNS(C)(=O)=O)c6)cccc5[nH]4)c3c2)c1 property_label=pEC50 relation_qualifier== val=6.25
compound_smiles=CC(C)(C)C(=O)Nc1cncc(-c2ccc3[nH]nc(-c4cc5c(-c6cc(F)cc(CNS(C)(=O)=O)c6)cccc5[nH]4)c3c2)c1 property_label=pEC50 relation_qualifier=< val=5.00
compound_smiles=CN(C)c1cncc(-c2ccc3[nH]nc(-c4cc5c(-c6ccoc6)cccc5[nH]4)c3c2)c1 property_label=pEC50 relation_qualifier== val=6.20
compound_smiles=O=C(Cc1ccccc1)Nc1cncc(-c2ccc3[nH]nc(-c4cc5c(-c6ccoc6)cccc5[nH]4)c3c2)c1 property_label=pEC50 relation_qualifier=< val=5.00
